Source: PubChem BioAssay AID1568

assay: Cell Viability Secondary Assay to Characterize qHTS Inhibitors of the Interaction of Thyroid Hormone Receptor and Steroid Receptor Coregulator 2; conditions: cell viability counter-screen, qHTS titration; series mostly up to 29.9 µM
Inconclusive results are not listed. Calls of active or inactive are those of the source. Calls follow the shape of the dose curve; as a rule, active = well fitted curve in the direction sought with a large enough effect; inconclusive = small, poorly fitted or top-dose-only effect, or effect the other way, or another doubt; inactive = no such curve, though single readings can be large or run the other way.
recordedMetric: outcome

{"molecule": "COc1ccc(C(=O)Oc2ccc(C(c3c(C)[nH][nH]c3=O)c3c(C)[nH][nH]c3=O)cc2OC)cc1", "dataValue": "inactive"}
{"molecule": "O=C(O)/C=C/C(=O)Nc1ccc(OC(F)(F)F)cc1Br", "dataValue": "inactive"}
{"molecule": "O=C(O)C1C2C=CC(O2)C1C(=O)Nc1ccc(S(=O)(=O)N2CCc3ccccc32)cc1 (stereo unspecified)", "dataValue": "inactive"}
{"molecule": "Cc1ccc(OC(=S)Nc2ccc(O)cc2)cc1", "dataValue": "inactive"}
{"molecule": "Cc1cc2c(NC(=O)Nc3ccccc3)cccc2nn1", "dataValue": "inactive"}
{"molecule": "CC(NC(=O)Nc1ccc(O)cc1)(C(F)(F)F)C(F)(F)F", "dataValue": "inactive"}
{"molecule": "Cc1nc2c3cc(F)ccc3n(Cc3ccccc3F)c2s1", "dataValue": "inactive"}
{"molecule": "Cn1cc(/C=C2\\SC(=S)N(NC(=O)c3ccccc3)C2=O)c2ccccc21", "dataValue": "inactive"}
{"molecule": "COc1ccc2ccc3c(c2c1)N=CC1(O3)N(C)c2ccccc2C1(C)C (stereo unspecified)", "dataValue": "inactive"}
{"molecule": "Cc1cccc(Cn2c(C(=O)OC(C)C)cc3c2ccn3C)c1", "dataValue": "inactive"}
{"molecule": "CCC(C)NC(=O)COC(=O)c1csc2c1CCCC2 (stereo unspecified)", "dataValue": "inactive"}
